Where these numbers come from: ChEMBL document CHEMBL4321859

# tested.system: Ornithine decarboxylase (Homo sapiens) (UniProt P11926)
# Sequence (P11926 whole entry): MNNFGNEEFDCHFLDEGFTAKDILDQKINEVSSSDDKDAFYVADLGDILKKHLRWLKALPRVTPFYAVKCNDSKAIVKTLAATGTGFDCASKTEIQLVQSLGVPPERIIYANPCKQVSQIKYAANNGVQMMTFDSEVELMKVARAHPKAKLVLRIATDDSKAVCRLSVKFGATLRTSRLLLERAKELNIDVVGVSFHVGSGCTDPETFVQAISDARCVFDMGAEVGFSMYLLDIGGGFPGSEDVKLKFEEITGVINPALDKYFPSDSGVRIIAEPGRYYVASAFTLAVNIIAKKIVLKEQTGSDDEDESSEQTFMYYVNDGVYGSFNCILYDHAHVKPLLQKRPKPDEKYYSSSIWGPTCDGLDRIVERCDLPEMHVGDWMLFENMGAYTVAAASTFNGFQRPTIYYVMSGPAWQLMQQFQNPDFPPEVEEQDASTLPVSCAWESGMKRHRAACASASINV
# run.description: Inhibition of ODC in human DU145 cells at 100 uM after 6 hrs
# Type: cell-based
Activity calls are given as the source filed them. No cut-off for these calls is given here.
// allowed return values: y = active, n = inactive

Exam item: Short answer needed: outcome of this test for NCCCNCCCCNCCCN ?
Marked response: y

Exam item: Next molecule up: CC(CCN)NCCCCNC(C)CCN (centres undefined)
Marked response: n

Exam item: Next molecule up: CC(N)CCNCCCCNCCC(C)N (centres undefined)
Marked response: y

Exam item: Next molecule up: CC(CN)CNCCCCNCC(C)CN (centres undefined)
Marked response: y

* * *

# tested.system: Ornithine decarboxylase (Homo sapiens) (UniProt P11926)
# run.description: Inhibition of ODC in human DU145 cells at 100 uM after 3 days
# Format: cell-based
Active and inactive are the calls of the source. The calls are words filed in the database; no cut-off is given here.
// allowed return values: active, inactive

Exam item: Short answer needed: outcome of this test for NCCCNCCCCNCCCN ?
Marked response: active

Exam item: Next compound up: CC(N)CCNCCCCNCCC(C)N (centres undefined)
Marked response: active

Exam item: Next compound up: CC(CN)CNCCCCNCC(C)CN (centres undefined)
Marked response: active

Exam item: Next compound up: CC(CCN)NCCCCNC(C)CCN (centres undefined)
Marked response: inactive
